MEASUREMENT_NAME: melting point

See these solved cases before continuing.
| COMPOUND | melting point |
| --- | --- |
| Cc1nc2c(OCc3ccccc3Cl)nccc2n1C [Example 8] | 180 to 181 °C |
| CCc1cccc(C)c1CNc1nc(OC)cc2c1nc(C)n2C [Example 15] | 106 to 107 °C |
| Cc1nc2c(OC3CCc4ccccc43)nccc2n1C (stereo not shown) [Example 10] | 164 to 165 °C |
| CCc1cccc(C)c1CNc1nc(C(=O)N(C)C)cc2c1nc(C)n2C [Example 2] | 204 to 206 °C |
| CCc1cccc(C)c1CNc1nc(C(=O)NC)cc2c1nc(C)n2C [Example 4] | 157 to 160 °C |

// each compound listed below needs its melting point
1. Cc1nc2c(OCc3ccccc3)nccc2n1C [Example 7]
2. CCc1cccc(C)c1CNc1nc(C(=O)NCCO)cc2c1nc(C)n2C [Example 5]
3. CCc1cccc(C)c1CNc1nc(C(=O)O)cc2c1nc(C)n2C [Example 13]

["115 to 116 °C", "208 to 209 °C", "233 to 236 °C"]

// each compound listed below needs its melting point
1. CCc1cccc(C)c1NCc1nccc2c1nc(C)n2C [Example 1]
2. CCc1cccc(C)c1CNc1nc(OCCOC)cc2c1nc(C)n2C [Example 14]

141 to 142 °C
105 °C

----------
MEASUREMENT_NAME: melting point

See these solved cases before continuing.
| CHEMICAL_SMILES | melting point |
| --- | --- |
| CCc1cccc(C)c1CNc1nc(C(N)=O)cc2c1nc(C)n2C | 264 to 266 °C |
| CCc1cccc(C)c1CNc1nc(C(=O)N(C)C)cc2[nH]c(C)nc12 | 207 to 208 °C |

Kindly review the next compound as well.
Please give measured melting point of the following entry: `CCOC(=O)c1cc2c(nc(C)n2C)c(NCc2c(C)cccc2CC)n1` > 111 °C (dec.)
